Data credit: the Human Domainome abundance scans (Beltran et al. 2025)

B1: Lysine-specific demethylase 2B, residues 656 to 722; numbered along this chain, Q8NHM5 (parent)
chain: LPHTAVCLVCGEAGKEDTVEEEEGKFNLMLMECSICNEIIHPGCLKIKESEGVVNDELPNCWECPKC

Variants of: B1
Test: abundance fitness (aPCA) (normalised: wild type 0, dead -1); higher = more abundant; growth selection in yeast, the domain comes from the species named
Conditions: Homo sapiens
Assay Endpoint: abundance fitness

INSERT INTO results (sequence_string, test_result) VALUES
  ('LPHTAVCLVCREAGKEDTVEEEEGKFNLMLMECSICNEIIHPGCLKIKESEGVVNDELPNCWECPKC [G11R]', -0.051),
  ('LPHTAVCLVCGEAGKEDTVEEEEVKFNLMLMECSICNEIIHPGCLKIKESEGVVNDELPNCWECPKC [G24V]', -0.021),
  ('LPHTAVCLVCGEAGKEDTVEEEEGKFNLMLMECSICNEIIHPGCLKIKEMEGVVNDELPNCWECPKC [S50M]', -0.155),
  ('LPHTAVCLVCGEAGKEDTVEEEEGKFNLMLMECSICNEIIHPGCLKIKESEWVVNDELPNCWECPKC [G52W]', -0.365),
  ('LPHTAVCLVCGEAGKEDTVEEEVGKFNLMLMECSICNEIIHPGCLKIKESEGVVNDELPNCWECPKC [E23V]', 0.035),
  ('LPHTAVCLVCGEAGKEDTVEEEEGKFNLMLMECSICNGIIHPGCLKIKESEGVVNDELPNCWECPKC [E38G]', -0.286),
  ('KPHTAVCLVCGEAGKEDTVEEEEGKFNLMLMECSICNEIIHPGCLKIKESEGVVNDELPNCWECPKC [L1K]', -0.363),
  ('LPHTAVCLVCGEAGKEDTVEEEEGKFNLMLMECSICNEIIHPGCLKIKESEGVENDELPNCWECPKC [V54E]', 0.024),
  ('LPHTAVCLVCGEAGKEDTVEEEEGKFNLMLMECSICNEIIHPGCLKIKESEGVVNDELPNCCECPKC [W62C]', -0.858),
  ('LPHTAVCLVCGEAGKEDTVSEEEGKFNLMLMECSICNEIIHPGCLKIKESEGVVNDELPNCWECPKC [E20S]', -0.191),
  ('LPHTAVCLVCGEAGKEDTVPEEEGKFNLMLMECSICNEIIHPGCLKIKESEGVVNDELPNCWECPKC [E20P]', -0.081),
  ('LPHIAVCLVCGEAGKEDTVEEEEGKFNLMLMECSICNEIIHPGCLKIKESEGVVNDELPNCWECPKC [T4I]', -0.288),
  ('LPHTAVCLVCGEAGKEDTVEHEEGKFNLMLMECSICNEIIHPGCLKIKESEGVVNDELPNCWECPKC [E21H]', 0.264);
